These entries and their values trace back to PubChem BioAssay AID1347385.

test: compounds reducing fatty acid uptake into lipids – ZR-82 cells, Enamine library, screen 3, primary screen (AID 1347385); settings: ZR-82 CHO cells, pyrene fatty acid UV survival, CellTiter Blue, peroxisome-deficient CHO-K1 mutant line, plus DGAT-1, DGAT-2 and ACAT inhibitors; at 10 µM unless noted;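 further: 3 h compound exposure then viability read about one day after UV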
Hit rate of the full screen: of about 20,000 compounds, about 85 (0.4%) were called active.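 How the source made its calls: active means cell survival signal 2 SD away from solvent-only control wells, confirmed on one or two retests; inactive means the rest.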 What follows is part of a selection rich in actives, with near analogues and random picks from the rest.
Select the matching outcome among active, inactive

Below, 10 compounds whose answers are already recorded.
O=S(=O)(Oc1cccc2cccnc12)c1ccc2ccccc2c1 ... inactive
Nc1c(C(=O)CSc2cc(F)ccc2F)c(=O)[nH]c(=O)n1C1CC1 ... inactive
O=C(O)CCN1C(=O)C2CC=CCC2C1=O (stereo not drawn) ... inactive
Cc1ccc(-c2csc3nc(CSc4nnnn4C)[nH]c(=O)c23)s1 ... inactive
S=C(Nc1ccc(Cl)c(Cl)c1)NC12CC3CC(CC(C3)C1)C2 ... inactive
CCNc1n[nH]c(=S)s1 ... inactive
O=C(CSc1nc2ccccc2nc1SCC(=O)c1cc2ccccc2o1)c1cc2ccccc2o1 ... inactive
O=S(=O)(c1ccc(F)cc1F)N1c2cccc3cccc(c23)S1(=O)=O ... inactive
Cc1nc(SCC(=O)N2CCNC2=O)n(CC(C)C)c1C ... inactive
O=C1NC(c2ccc3ncccc3c2)C(C(=O)c2cccnc2)C(O)(C(F)(F)F)N1 (stereo not drawn) ... inactive

Lookup: What call does the record list for CCOC(=O)c1sc2nc(C(C)Sc3ncnc4sc5c(c34)CCC5)[nH]c(=O)c2c1C (stereo not drawn) ?
Found: inactive

Lookup: What call does the record list for C(=N\n1c(-c2ccc(-c3ccccc3)cc2)csc1=NCCc1ccccc1)/c1ccccn1 ?
Found: inactive

Lookup: What call does the record list for O=C(C1CCCCC1)N1N=C2/C(=C/c3ccco3)CCCC2C1c1ccco1 (stereo not drawn) ?
Found: inactive

Lookup: What call does the record list for O=S(=O)(c1ccc(F)c(F)c1)N1CCN(c2ccc(O)cc2)CC1 ?
Found: inactive
